Hello, the source for this data is patent US20240409536A1, in case you need it.

Tested on: HiBiT-tagged MYB protein
Test: HiBiT protein abundance assay, MYB (K562 HiBiT knock-in cells)
Format: cell-based, human
Conditions: 24 hours
Description: Compounds described herein were used to screen for effects on quantitative protein abundance using a HiBit assay system (Promega). Quantitative protein abundance was determined by measuring the protein levels of HiBit-tagged protein targets expressed in cell culture via luminescence using the Nano-Glo HiBiT Lytic Detection System, which uses a split complementation assay format to reconstitute NanoBiT enzyme to generate a luminescent signal. […]
pIC50: −log10 of the molar value.
What pIC50 was measured for each of the following?

Can you look up the measured pIC50 of CN[C@H]1CCN(c2ccc(C(=O)Nc3cc(F)c4nc(C)cn4c3)c3nnccc23)C1 for me?
> 7.00

Queued: COc1nc2c(N3C[C@@H](C)N[C@@H](C)C3)ccc(C(=O)Nc3cc(F)c4nc(C)cn4c3)c2nc1C [Compound 260, 2,2,2-trifluoroacetate]
> 7.00

Queued: COc1ncc2c(N3C[C@@H](C)N[C@@H](C)C3)ccc(C(=O)Nc3cn4cc(C)nc4c(OC)n3)c2n1
> 7.00

Queued: COc1ncc2c(N3C[C@@H](C)N[C@@H](C)C3)ccc(C(=O)Nc3cc(F)c4nc(C)cn4c3)c2n1
> 7.00

Queued: Cc1cn2cc(NC(=O)c3ccc(N4CC[C@@H](N)C4)c4ccnnc34)cc(F)c2n1
6.00 to 7.00

Queued: Cc1cn2cc(NC(=O)c3ccc(N4C[C@@H](C)N[C@@H](C)C4)c4ncc(Cl)nc34)cc(F)c2n1
5.00 to 6.00

Queued: CNC1CCN(c2ccc(C(=O)Nc3cc(F)c4nc(C)cn4c3)c3nc(OCCOC)ccc23)C1 (stereo not shown)
> 7.00

---

Tested on: MYB mRNA
Experiment: Splicing RT-qPCR assay, MYB canonical (CJ) and alternative (AJ) junction mRNA
Format: cell-based
Details: Homo sapiens, decrease in canonical junction mRNA, A673 or K562 cells, 24 hours
Structures can show the parent of a compound that is named as a salt.
What IC50 was measured for each of the following?

Can you look up the measured IC50 of Cc1cn2nc(NC(=O)c3ccc(N4C[C@@H](C)N[C@@H](C)C4)c4nccnc34)cc2c(C)n1 for me?
0.1 to 1 µM

Queued: Cc1cn2cc(NC(=O)c3ccc(N4CC5(CN(C)C5)C4)c4ccnnc34)cc(F)c2n1
0.1 to 1 µM

Queued: Cc1cn2cc(NC(=O)c3ccc(N4CCNCC4)c4nccnc34)cc(F)c2n1
0.1 to 1 µM

Queued: C[C@@H]1CN(c2ccc(C(=O)Nc3ccc4nc(N(C)C)oc4c3)c3nccnc23)C[C@H](C)N1
1 to 10 µM

Queued: COc1cnc2c(C(=O)Nc3cc(F)c4nc(C)cn4c3)ccc(N3CCNCC3)c2n1
< 0.1 µM

Queued: COc1cnc2c(N3C[C@@H](C)N[C@@H](C)C3)ccc(C(=O)Nc3cc(F)c4nc(C)cn4c3)c2n1
< 0.1 µM

Queued: Cc1cn2cc(NC(=O)c3ccc(N4CCNCC4)c4ccnnc34)cc(C(C)O)c2n1 (stereo not shown) [Compound 182, trifluoroacetate]
> 10 µM

---

Test system: HiBiT-tagged MYB protein
Experiment: HiBiT protein abundance assay, MYB (K562 HiBiT knock-in cells)
Type: cell-based, human
Details: 24 hours
pIC50: −log10 of the molar value.
What pIC50 was measured for each of the following?

Can you look up the measured pIC50 of Cc1cn2cc(NC(=O)c3ccc(N4C[C@@H](C)N[C@@H](C)C4)c4nccnc34)cc(C#N)c2n1 for me?
6.00 to 7.00

Queued: Cc1cn2cc(NC(=O)c3ccc(N4CCN5CCOC[C@@H]5C4)c4nccnc34)cc(F)c2n1
6.00 to 7.00

Queued: Cc1cnc2c(N3CCNCC3)ccc(C(=O)Nc3cc(F)c4nc(C)cn4c3)c2n1
> 7.00

Queued: Cc1cn2cc(NC(=O)c3ccc(N4CCN[C@H](C)C4)c4nccnc34)cc(F)c2n1
> 7.00

Queued: Cc1cn2cc(NC(=O)c3ccc(N4C[C@@H](C)N[C@@H](C)C4)c4nccnc34)nc(C)c2n1
> 7.00

Queued: Cc1cn2cc(NC(=O)c3c(F)cc(N4C[C@@H](C)N[C@@H](C)C4)c4nccnc34)cc(F)c2n1
> 7.00

Queued: CCC1CN(c2ccc(C(=O)Nc3cc(F)c4nc(C)cn4c3)c3nnccc23)CCN1 (centres unmarked)
> 7.00

Queued: Cc1cn2cc(NC(=O)c3ccc(N4C[C@@H](C)N[C@@H](C5CC5)C4)c4nccnc34)cc(F)c2n1
> 7.00

Queued: Cc1cn2cc(NC(=O)c3ccc(N4CCN5CCC[C@@H]5C4)c4ccnnc34)cc(F)c2n1
> 7.00

Queued: C[C@@H]1CN(c2ccc(C(=O)Nc3cc(F)c4nc(Cl)cn4c3)c3nccnc23)C[C@H](C)N1
6.00 to 7.00

Queued: COc1cnc2c(N3C[C@@H](C)N[C@@H](C)C3)ccc(C(=O)Nc3cc(F)c4nc(C)cn4c3)c2n1
> 7.00

Queued: CNC1CCN(c2ccc(C(=O)Nc3cc(F)c4nc(C)cn4c3)c3ncc(OC)nc23)C1 (stereo in doubt) [Compound 227, 2,2,2-trifluoroacetate]
6.00 to 7.00

Queued: Cc1cnc2c(C(=O)Nc3cc(F)c4nc(C)cn4c3)ccc(N3CCC(N(C)C)CC3)c2n1
> 7.00

Queued: C[C@@H]1CN(c2ccc(C(=O)Nc3cc(F)c4nc(O)cn4c3)c3nccnc23)C[C@H](C)N1
< 5.00

---

System: MYB mRNA
Assay: Splicing RT-qPCR assay, MYB canonical (CJ) and alternative (AJ) junction mRNA
Type: cell-based
Conditions: Homo sapiens, decrease in canonical junction mRNA, A673 or K562 cells, 24 hours
pIC50: −log10 of the molar value. Where a name gives a salt, the structure may show the parent alone.
What pIC50 was measured for each of the following?

Query the reported pIC50 for MYB mRNA; item: Cc1cn2cc(NC(=O)c3ccc(C4CCNC5(CC5)C4)c4nccnc34)cc(F)c2n1 (stereo not shown)
6.00 to 7.00

Queued: Cc1cn2cc(NC(=O)c3ccc(N4C[C@@H](C)N[C@@H](C)C4)c4nccnc34)cc(F)c2n1
> 7.00

Queued: COc1cc(NC(=O)c2ccc(N3CCNCC3)c3ccnnc23)cn2cc(C)nc12 [Compound 176, trifluoroacetate]
6.00 to 7.00

Queued: CN[C@@H]1CCN(c2ccc(C(=O)Nc3cc(F)c4nc(C)cn4c3)c3nccnc23)C1 (single isomer, unassigned)
6.00 to 7.00

Queued: Cc1cn2cc(NC(=O)c3ccc(N4C[C@H]5C[C@@H]4C5N(C)C)c4ccnnc34)cc(F)c2n1 (stereo partly shown)
5.00 to 6.00

Queued: Cc1cn2cc(NC(=O)c3ccc(N4CC[C@@H](N)C4)c4ccnnc34)cc(F)c2n1
6.00 to 7.00

Queued: Cc1cn2cc(NC(=O)c3ccc([C@@H]4C[C@@H](C)N[C@@H](C)C4)c4nccnc34)cc(F)c2n1
> 7.00

---

System: HiBiT-tagged MYB protein
Assay: HiBiT protein abundance assay, MYB (K562 HiBiT knock-in cells)
Assay type: cell-based, human
Conditions: 24 hours
Where a name gives a salt, the structure may show the parent alone.
What IC50 was measured for each of the following?

Query the reported IC50 for HiBiT-tagged MYB protein; item: Cc1cn2cc(NC(=O)c3ccc([C@@]45CCNCC4C5)c4nccnc34)cc(F)c2n1 (stereo in doubt) [Compound 248, 2,2,2-trifluoroacetate]
100 to 1000 nM

Queued: Cc1cn2cc(NC(=O)c3ccc(N4C[C@@H](C)N[C@@H](C)C4)c4nccnc34)nc2c(C)n1 [Compound 359]
100 to 1000 nM

Queued: Cc1cn2cc(NC(=O)c3ccc(C4=CCNCC4)c4nccnc34)cc(F)c2n1 [Compound 240]
< 100 nM

Queued: COc1cc(NC(=O)c2ccc(N3CCNCC3)c3ccnnc23)cn2cc(C)nc12 [Compound 176, trifluoroacetate]
100 to 1000 nM

Queued: Cc1cn2cc(NC(=O)c3ccc(N4CCN[C@@H](C5CC5)C4)c4nccnc34)cc(F)c2n1 [Compound 252]
100 to 1000 nM

Queued: CC[C@H]1CN(c2ccc(C(=O)Nc3cc(F)c4nc(C)cn4c3)c3nnccc23)CCN1 [Compound 152]
< 100 nM

Queued: COc1nc2ccc(NC(=O)c3ccc(N4C[C@@H](C)N[C@@H](C)C4)c4nccnc34)cc2o1 [Compound 292]
1000 to 10000 nM

Queued: CCc1cc(NC(=O)c2ccc(N3CCNCC3)c3ccnnc23)nn2cc(C)nc12 [Compound 168, trifluoroacetic acid salt]
1000 to 10000 nM

Queued: Cc1cn2cc(NC(=O)c3ccc(N4CCN(C)CC4)c4ccnnc34)cc(F)c2n1 [Compound 127]
100 to 1000 nM

Queued: Cc1cn2cc(NC(=O)c3ccc(N4CCC(N)(CF)CC4)c4nccnc34)cc(F)c2n1 [Compound 356]
1000 to 10000 nM

Queued: Cc1cn2cc(NC(=O)c3ccc(N4CCNCC4)c4nncnc34)cc(F)c2n1 [Compound 345]
100 to 1000 nM

Queued: Cn1cc2c(F)cc(NC(=O)c3ccc(N4CCNCC4)c4ccnnc34)cc2n1 [Compound 116]
> 10000 nM

Queued: Cc1cn2cc(NC(=O)c3ccc(N4CCC(NC(C)(C)C)CC4)c4ccnnc34)cc(F)c2n1 [Compound 138]
100 to 1000 nM

Queued: Cc1cn2cc(NC(=O)c3ccc(N4C[C@@H](C)N(O)[C@@H](C)C4)c4nccnc34)cc(F)c2n1 [Compound 355]
100 to 1000 nM

Queued: Cc1cn2nc(NC(=O)c3ccc(N4CCNCC4)c4ccnnc34)cc(C)c2n1 [Compound 100]
100 to 1000 nM
